Tested on: HeLa (cervix)
Assay: Antiproliferative SBR assay (NCI protocol), HeLa
Format: cell-based, human
Conditions: Homo sapiens, HeLa; 48 h exposure, n = 3, mean ± SD
Test readout: log10 of GI50 (log10 of the value in µM)
Plainly stated, the numbers are log10 of GI50 given in µM.

NS(=O)(=O)c1ccc(NC(=S)N/N=C/c2ccc(Br)cc2)cc1 [Compound 4e]; 1.26
COc1ccc(/C=N/NC(=S)Nc2ccc(S(N)(=O)=O)cc2)cc1 [Compound 4b]; 1.81
NS(=O)(=O)c1ccc(CCNC(=S)N/N=C/c2ccc(Cl)cc2)cc1 [Compound 4o]; 1.65

Look up log10 of GI50 for the entries below, preserving their order.
1. NS(=O)(=O)c1cccc(NC(=S)N/N=C/c2ccc(Br)cc2)c1 [Compound 4k]
2. O=c1[nH]cc(F)c(=O)[nH]1 [5-Fluorouracil, reference compound]
3. NS(=O)(=O)c1ccc(NC(=S)N/N=C/c2ccccc2)cc1 [Compound 4a]

[1.65, 1.20, 0.36]
